Task for the reader: assign each of the following binders its reported pKd.
# system: T1, S. pombe αWD40 Arg300Ala mutant (S. pombe, UniProt Q96WV5 1-327, Arg300Ala)
# T1 sequence: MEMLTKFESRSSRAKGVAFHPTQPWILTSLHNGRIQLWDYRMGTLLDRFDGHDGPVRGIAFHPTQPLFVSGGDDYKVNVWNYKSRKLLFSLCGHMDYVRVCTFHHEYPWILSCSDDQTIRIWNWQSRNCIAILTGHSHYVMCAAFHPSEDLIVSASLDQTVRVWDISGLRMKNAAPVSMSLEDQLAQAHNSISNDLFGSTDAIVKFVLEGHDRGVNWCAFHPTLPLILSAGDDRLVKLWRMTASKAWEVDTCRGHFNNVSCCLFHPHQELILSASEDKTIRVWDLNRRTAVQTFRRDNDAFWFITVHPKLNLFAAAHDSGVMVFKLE
# measurement.notes: BLI
No end group written: not given here.
Answers are plain numbers, as −log10 of the molar value.

GVKLHYE (also: biotinylated) [clientized (Thr1273Glu) SARS-CoV-2 S tail heptapeptide (residues 1267-1273), biotinylated] = 5.38

Here's the next entry for you.
Entry GVKLHYT (also: biotinylated) [wild-type SARS-CoV-2 S tail heptapeptide (residues 1267-1273), biotinylated] has what pKd? 5.44
